- experimental.system: Su(dx) WW3 domain (Drosophila, UniProt Q9Y0H4 471-514)
- Sequence (Q9Y0H4 471-514): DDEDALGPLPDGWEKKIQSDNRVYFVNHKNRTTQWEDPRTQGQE
- procedure.text: ITC
pKd: −log10 of the molar value.
readout.kind: pKd

binder="GPPPPPYPG [WBP1 peptide]" observed_measurement=3.94
